Quick reference: Single dose STAT5-Luc assay, activity relative to NB1016 (chimeric), antibody at 1 nM of the listed items.
- ASSAYED SYSTEM: T1, human FLT3 (FMS-like tyrosine kinase 3) (human, UniProt P36888 27-993)
- T1 sequence (looked up): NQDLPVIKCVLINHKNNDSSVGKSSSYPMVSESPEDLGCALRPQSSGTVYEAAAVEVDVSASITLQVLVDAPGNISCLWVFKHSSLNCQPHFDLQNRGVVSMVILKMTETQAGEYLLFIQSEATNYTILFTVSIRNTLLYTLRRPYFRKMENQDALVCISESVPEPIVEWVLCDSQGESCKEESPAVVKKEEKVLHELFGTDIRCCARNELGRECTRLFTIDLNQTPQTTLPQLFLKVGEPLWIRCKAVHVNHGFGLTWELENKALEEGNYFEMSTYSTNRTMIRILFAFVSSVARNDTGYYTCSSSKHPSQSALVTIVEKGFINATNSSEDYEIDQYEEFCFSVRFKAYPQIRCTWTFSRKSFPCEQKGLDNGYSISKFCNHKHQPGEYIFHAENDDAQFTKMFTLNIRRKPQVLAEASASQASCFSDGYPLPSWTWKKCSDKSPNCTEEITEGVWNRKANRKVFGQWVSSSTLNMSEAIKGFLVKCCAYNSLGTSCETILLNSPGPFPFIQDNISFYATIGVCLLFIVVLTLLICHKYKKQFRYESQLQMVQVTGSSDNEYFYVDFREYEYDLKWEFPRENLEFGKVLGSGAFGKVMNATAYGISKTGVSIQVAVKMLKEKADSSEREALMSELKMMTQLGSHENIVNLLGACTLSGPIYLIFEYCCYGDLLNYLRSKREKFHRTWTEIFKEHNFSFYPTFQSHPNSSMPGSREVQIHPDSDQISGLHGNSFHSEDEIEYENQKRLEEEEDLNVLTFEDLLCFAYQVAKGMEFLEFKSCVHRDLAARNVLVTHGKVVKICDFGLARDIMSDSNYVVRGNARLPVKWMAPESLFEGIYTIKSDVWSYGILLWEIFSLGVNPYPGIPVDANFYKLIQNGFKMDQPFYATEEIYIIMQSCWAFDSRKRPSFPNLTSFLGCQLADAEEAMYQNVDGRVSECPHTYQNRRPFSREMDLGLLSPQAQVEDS
- ASSAY COMMENT: cell-based or functional assay
PROPERTY: Single dose STAT5-Luc assay, activity relative to NB1016 (chimeric), antibody at 1 nM

BINDER	REPORTED RESULT
Humanized VH5 x Humanized VL5 (antibody, V domains shown) VH: EVQLVESGGVVVQPGGSLRLSCAPSGFTFSNYGMAWVRQAPGKGLEWVSSIHSGGGDTYYADSVKGRFTISRDNSKNSLYLQMNSLRTEDTALYYCARGRTPTGYYFDHWGQGTMVTVSS VL: EIVMTQSPATLSVSPGERATLSCRASEGIHNGLAWYQQKPGQAPRLLIYNANSLHSGIPARFSGSGSGTEFTLTISSLQSEDFAVYFCQQYYDYPLTFGQGTKLEIK	75%
Humanized VH4 x Humanized VL2 (antibody, V domains shown) VH: QVQLVESGGGVVQPGRSLRLSCAASGFTFSNYGMAWVRQAPGKGLEWVASIHSGGGDTYYRDSVKGRFTISRDNSKNTLYLQMNSLRAEDTATYYCARGRTPTGYYFDHWGQGTMVTVSS VL: AIQMTQSPSSLSASVGDRVTITCRASEGIHNGLAWYQQKPGKAPKLLIYNANSLHSGVPSRFSGSGSGTDFTLTISSLQPEDFATYYCQQYYDYPLTFGQGTKLEIK	90%
